- ASSAYED TARGET: PeDPP11 (PeDPP11_22-717 S652A) (Porphyromonas endodontalis, UniProt F8WQK8, S652A)
- Construct: genes encoding for C-terminal 6xHis-tagged PeDPP11_22-717 S652A and PgDPP11_22-720 S655A in the pET-22b(+) vector; 6xHis (C); made in house; host or cells: E. coli BL21(DE3)pLysS
- Sequence (F8WQK8 22-717 S652A): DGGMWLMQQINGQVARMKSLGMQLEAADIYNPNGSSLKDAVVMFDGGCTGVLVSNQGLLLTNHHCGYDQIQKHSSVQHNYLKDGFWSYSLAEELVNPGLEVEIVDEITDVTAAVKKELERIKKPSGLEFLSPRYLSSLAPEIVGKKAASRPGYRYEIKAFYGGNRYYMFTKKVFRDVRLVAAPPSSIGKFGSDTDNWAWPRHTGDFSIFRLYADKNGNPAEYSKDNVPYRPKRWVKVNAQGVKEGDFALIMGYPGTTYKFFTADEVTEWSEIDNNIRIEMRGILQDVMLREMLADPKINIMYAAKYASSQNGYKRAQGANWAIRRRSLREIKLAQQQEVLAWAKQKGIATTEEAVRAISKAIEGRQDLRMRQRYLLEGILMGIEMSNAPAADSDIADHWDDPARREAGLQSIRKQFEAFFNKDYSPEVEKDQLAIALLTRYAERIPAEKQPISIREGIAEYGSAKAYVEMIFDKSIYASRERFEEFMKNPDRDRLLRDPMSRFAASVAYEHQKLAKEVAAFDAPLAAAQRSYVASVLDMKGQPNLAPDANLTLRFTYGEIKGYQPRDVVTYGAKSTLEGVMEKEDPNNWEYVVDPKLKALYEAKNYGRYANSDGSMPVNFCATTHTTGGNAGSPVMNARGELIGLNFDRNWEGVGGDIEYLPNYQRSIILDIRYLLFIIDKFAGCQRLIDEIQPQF
- EXPERIMENT NOTES: Isothermal titration calorimetry (ITC) of peptide binding to PeDPP11
- MEASUREMENT SETUP: Kd, 15 °C (288 K), 10 mM Hepes-NaOH pH 7.4, 100 mM NaCl, averages of at least two independent measurements
Peptide text beside a SMILES is read from it.
METRIC: pKd
Friendly reminder that pKd comes from taking -log10 of the concentration in mol/L.

pKd on PeDPP11 (PeDPP11_22-717 S652A) (Porphyromonas endodontalis, UniProt F8WQK8, S652A) for CC(C)C[C@H](N)C(=O)N[C@@H](CC(=O)O)C(=O)N[C@H](C(=O)N[C@@H](Cc1c[nH]c2ccccc12)C(=O)O)C(C)C [LDVW, Leu-Asp-Val-Trp] (H-LDVW-OH) is 5.05
